Collected IC50 values appear next to each entry.
target: Nonstructural protein 3 (Zika virus); assay: Functional biochemical assay to identify treatments for viral infectious disease that targets Zika NS2B-NS3 protease. Utilizing a direct enzyme activity measurement method, reading the fluorescence intensity is used to characterize the relative potency of inhibitors as IC50.; set-up: species or system PRVABC59

{"Line notation": "c1nc(C2CCN(Cc3cc(C4CCOCC4)[nH]n3)CC2)cs1", "IC50": "> 99.5 µM"}
{"Line notation": "O=C(O)Cc1cc2c(c(Cc3c[nH]c4ccc(Cl)cc34)c1)OCC2", "IC50": "> 99.5 µM"}
{"Line notation": "O=C(Nc1cccc(-c2nnn[nH]2)c1)c1cc(Cl)cc2[nH]ncc12", "IC50": "> 99.5 µM"}
{"Line notation": "Cc1c(C(=O)Nc2cc(-c3cccnc3)ccn2)c2ccccc2n1C", "IC50": "> 25 µM"}
{"Line notation": "Cc1c(C(=O)Nc2cc(C(=O)N3C[C@@H]4[C@H](O)[C@@H]4C3)ccn2)cc(C2CC2)n1C", "IC50": "> 25 µM"}
{"Line notation": "O=C(Nc1cc(Cl)cc(C(=O)Nc2cccc(C3(C(=O)O)CCC3)c2)c1)OCc1ccccc1", "IC50": "69 µM"}
{"Line notation": "O=C(Nc1cc(Cl)cc(C(=O)Nc2cccc(-c3cc[nH]n3)c2)c1)OCc1ccccc1", "IC50": "> 99.5 µM"}
{"Line notation": "N#Cc1cccc2c(CN3CCC(c4cscn4)CC3)c[nH]c12", "IC50": "> 99.5 µM"}
{"Line notation": "OC[C@H]1CCN(c2cnc3ccccc3n2)C1", "IC50": "> 99.5 µM"}
{"Line notation": "CC(C)Oc1cc(CN)ccc1NS(=O)(=O)c1ccc(Oc2ccccc2Cl)cc1", "IC50": "64.4 µM"}
{"Line notation": "CNC(=O)[C@H](Nc1cncc(C(=O)O)c1)c1cc(Cl)cc(C2CC2)c1", "IC50": "> 99.5 µM"}
{"Line notation": "NCc1cccc(NC(=O)c2c(C(F)F)nc3cnccn23)c1", "IC50": "> 99.5 µM"}
{"Line notation": "NCc1cc(NC(=O)c2cc(Cl)cc(NC(=O)OCc3ccccc3)c2)cc(C2=CC[C@H](C(=O)O)CC2)c1", "IC50": "14.6 µM"}
{"Line notation": "Cc1cc(C)n([C@H]2CCCN(C(=O)Nc3ccc4c(c3)CNC4)C2)n1", "IC50": "> 25 µM"}
{"Line notation": "NCc1cccc(NC(=O)c2cc(Cl)cc(N3CCCC3)c2)c1", "IC50": "12 µM"}
{"Line notation": "CC(C)Nc1c(-c2cc(Cl)cc3[nH]ncc23)nc2ccc3c(n12)CNC3", "IC50": "> 25 µM"}
{"Line notation": "NCc1cccc(NC(=O)c2cc(Cl)cc(Cl)c2O)c1", "IC50": "> 99.5 µM"}
{"Line notation": "CC(=O)N(c1ccc2c(c1)CNC2)[C@]1(c2cc(Cl)cc(C3CC3)c2)CCCN(C)C1=O", "IC50": "> 25 µM"}
{"Line notation": "CCn1cc(-c2cccc(OC)c2F)nc(N2CC[C@@H](CO)C2)c1=O", "IC50": "> 99.5 µM"}
{"Line notation": "N#Cc1cccc(N2CCN(Cc3c[nH]c4ccccc34)CC2)c1", "IC50": "85.6 µM"}
{"Line notation": "NCc1cccc(NC(=O)[C@H](NS(=O)(=O)C2CCCCC2)c2ccc(OCc3ccccc3)cc2)c1", "IC50": "64.8 µM"}
{"Line notation": "COC(=O)[C@]12CC[C@](C(=O)Nc3cccc(CN)c3)(COC1)C2", "IC50": "> 99.5 µM"}
{"Line notation": "O=C(Nc1ccc2c(c1)CNC2)N1CC[C@H](Oc2ccc(C3CC3)cn2)C1", "IC50": "> 25 µM"}
{"Line notation": "CCn1ccnc(N2CC[C@H](c3ccn[nH]3)C2)c1=O", "IC50": "> 99.5 µM"}
{"Line notation": "O=C(c1cccnc1)N1CCN(Cc2c[nH]c3ccccc23)CC1", "IC50": "> 99.5 µM"}
{"Line notation": "CCC[C@H](C)N1Cc2ccc(NC(=O)c3cc(Cl)cc4[nH]ncc34)cc2C1", "IC50": "3.2 µM"}
{"Line notation": "Cc1c(C(=O)Nc2cccc([C@H]3CCNC3)c2)cc(C2CC2)n1C", "IC50": "> 99.5 µM"}
{"Line notation": "O=C(Nc1ccc2c(c1)CNC2)c1ccc2c(c1)CCC2", "IC50": "11.7 µM"}

###

target: Nonstructural protein 3 (Zika virus); experiment: Functional biochemical assay to identify treatments for viral infectious disease that targets Zika NS2B-NS3 protease. Utilizing a direct enzyme activity measurement method, reading the fluorescence intensity is used to characterize the relative potency of inhibitors as IC50.; design: species or system PRVABC59
Collected IC50 values appear next to each entry.
Assay metric: IC50

{"Line notation": "CCn1ccc(-c2ccc([C@@H](NC(=O)OCc3ccccc3)C(=O)Nc3cccc(CN)c3)cc2)n1", "Test target": "Nonstructural protein 3 (Zika virus)", "Experimental result": "> 99.5 µM"}
{"Line notation": "CC1(C)CN(C(=O)Nc2ccc3c(c2)CNC3)CC(F)(F)C1", "Test target": "Nonstructural protein 3 (Zika virus)", "Experimental result": "> 25 µM"}
{"Line notation": "O=C1Cc2c(cccc2C(=O)NC[C@H]2CCCN(c3nccs3)C2)N1", "Test target": "Nonstructural protein 3 (Zika virus)", "Experimental result": "> 25 µM"}
{"Line notation": "NCc1cccc(NC(=O)c2cc(N)cc(NC(=O)OCc3ccccc3)c2)c1", "Test target": "Nonstructural protein 3 (Zika virus)", "Experimental result": "> 99.5 µM"}
{"Line notation": "O=C(Nc1cc(Cl)cc(C(=O)Nc2cccc(CO)c2)c1)OCc1ccccc1", "Test target": "Nonstructural protein 3 (Zika virus)", "Experimental result": "> 99.5 µM"}
{"Line notation": "NCc1cccc(NC(=O)[C@H](NC(=O)OCc2ccccc2)C2CCN(CCc3ccccc3)CC2)c1", "Test target": "Nonstructural protein 3 (Zika virus)", "Experimental result": "> 99.5 µM"}

###

molecular target: Nonstructural protein 3 (Zika virus, UniProt A0A024AXB9); test: Functional biochemical assay to identify treatments for viral infectious disease that targets Zika NS2B-NS3 protease. Utilizing a direct enzyme activity measurement method, reading the fluorescence intensity is used to characterize the relative potency of inhibitors as IC50.; set-up: species or system PRVABC59
Sequence (A0A024AXB9 whole entry): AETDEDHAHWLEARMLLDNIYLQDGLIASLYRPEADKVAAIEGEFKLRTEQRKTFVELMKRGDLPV
This section presents compounds with their documented IC50 values.

{"Line notation": "O=C(Nc1cc(-c2cccnc2)ccn1)c1sc2c(c1Br)CNC2", "Test target": "Nonstructural protein 3 (Zika virus, UniProt A0A024AXB9)", "IC50": "> 25 µM"}
{"Line notation": "Cc1c(C(=O)Nc2cc(CCCN)ccc2F)cc(C2CC2)n1C", "Test target": "Nonstructural protein 3 (Zika virus, UniProt A0A024AXB9)", "IC50": "69.2 µM"}
{"Line notation": "N[C@H]1Cc2ccc(NC(=O)c3cccc4c3CC(=O)N4)cc2C1", "Test target": "Nonstructural protein 3 (Zika virus, UniProt A0A024AXB9)", "IC50": "2.77 µM"}
{"Line notation": "Cc1cc(CC(=O)O)ccc1Cc1c[nH]c2ccc(Cl)cc12", "Test target": "Nonstructural protein 3 (Zika virus, UniProt A0A024AXB9)", "IC50": "> 99.5 µM"}
{"Line notation": "O=C(O)c1cc(Cl)ccc1NS(=O)(=O)c1ccc(-c2cccnc2)cc1", "Test target": "Nonstructural protein 3 (Zika virus, UniProt A0A024AXB9)", "IC50": "> 99.5 µM"}
{"Line notation": "Cc1c(C(=O)Nc2cc(-c3cccnc3)ccn2)cc(C2CCCCC2)n1C", "Test target": "Nonstructural protein 3 (Zika virus, UniProt A0A024AXB9)", "IC50": "> 12.5 µM"}

###

Listing of recorded pIC50 by entry.
target: Nonstructural protein 3 (Zika virus); assay: Functional biochemical assay to identify treatments for viral infectious disease that targets Zika NS2B-NS3 protease. Utilizing a direct enzyme activity measurement method, reading the fluorescence intensity is used to characterize the relative potency of inhibitors as IC50.; design: species or system PRVABC59
pIC50: −log10 of the molar value.

{"Line notation": "CCn1cc(-c2ccc(C(F)F)nc2)nc(N2CC[C@@H](CO)C2)c1=O", "pIC50": "< 4.00"}
{"Line notation": "N[C@H]1CC[C@H](CNC(=O)[C@@H](NC(=O)OCc2ccccc2)c2ccc(OCc3ccccc3)cc2)CC1", "pIC50": "< 4.00"}
{"Line notation": "COc1cc(COc2cccnc2F)nc(N2CCNCC2)n1", "pIC50": "< 4.00"}
{"Line notation": "O=C(Nc1cc(Cl)cc([C@H](Nc2cccc(-c3nn[nH]n3)c2)C(=O)NC[C@H]2CCCO2)c1)OCc1ccccc1", "pIC50": "< 4.00"}
{"Line notation": "Cc1cc(=O)[nH]c(-c2cccc(NC(=O)c3cc(C4CC4)n(C)c3C)c2)n1", "pIC50": "< 4.60"}
